tested on: Hs-578T; assay: NCI tumour cell line growth inhibition, 48 h
The source made the active and inactive calls. Cut-off read from the data, not from the text of the source: active = GI50 up to about 1.1 µM and inactive = higher.
This listing pairs compounds with measured GI50.

Compound: S=c1[nH]nc(COc2ccc3c(c2)CCCC3)n1/N=C/c1ccc(Cl)cc1
Tgt: Hs-578T
GI50: 21.6 µM (inactive)
//
Compound: O=C1C2CCCCC2C(=O)N1n1c(-c2ccccc2)n[nH]c1=O (stereo not drawn)
Tgt: Hs-578T
GI50: > 100 µM (inactive)
//
Compound: CCN1C[C@]2(C)CC[C@H](OCc3ccccc3)C34C5C[C@@H]6CC[C@](O)(C(C[C@@H]32)C14)C5[C@H]6OCc1ccccc1 (stereo partly drawn)
Tgt: Hs-578T
GI50: > 100 µM (inactive)

Where do these numbers come from? They come from ChEMBL document CHEMBL1201862.
